target: T1, recombinant human ErbB3/Fc fusion protein (human, UniProt P21860 20-643); test: ECL (MSD) competition: rhErbB3/Fc coated on the plate, antibody dilutions, then NRG1-β1 at 0.25 µg/ml; bound NRG1-β1 detected
T1 construct: Bought (R&D Systems, Cat. No. 348-RB); the NRG1-α1 assay names Cat. No. 4518-RB instead; also called rhErbB3-Fc; rhErbB3/Fc; not shown: Fc portion of the bought fusion protein
testReadout: IC50 (read off the curve)

* 22A02 (antibody, mouse IgG1, kappa, V domains shown, Murine IgG1/kappa, from hybridoma; also called anti-hErbB3 monoclonal antibody 22A02) VH: QVQLQQPGAELVRPGTSVKLSCKASGYTFTNYWMHWVKQRPGQGLEWIGMIDPSDSYTNYNPKFKGKATLTVDTSSSTAYMQLSSLTSEDSAVYYCARNYSGDYWGQGTTLTVSS VL: DVLMTQTPLSLPVSLGDQASISCRSSQSIVHSNGNTYLEWYLQKPGQSPKLLIYKVSNRFSGVPDRFSGSGSGTDFTLKISRVEAEDLGVYYCFQGSYVPWTFGGGTKLEIKR | ~0.2 nM
* 12A07 (antibody, mouse IgG1, kappa, V domains shown, Murine IgG1/kappa, from hybridoma; also called anti-hErbB3 monoclonal antibody 12A07) VH: QVQLLQPGAELVRPGTSVKLSCKTSGYTFSSYWMHWVKQRPGQGLEWIGMIDPSDVYTNYNPKFKGKATLTVDTSSSTAYMQLSSLTSEDSAVYYCARNYSGDYWGQGTTLTVSS VL: DVLMTQIPLSLPVSLGDQASISCRSSQSIVHSNGNTYLEWYLQKPGQSPKLLIYKVSNRFSGVPDRFSGSGSGTDFTLKISRVEAEDLGVYYCFQGSYVPWTFGGGTKLEIKR | ~0.2 nM
* 04D01 (antibody, mouse IgG1, kappa, V domains shown, Murine IgG1/kappa, purified from hybridoma; also called anti-hErbB3 monoclonal antibody 04D01) VH: QVQLQQPGAELVRPGTSVKLSCKASGYTFTSHWLHWVKQRPGQGLEWIGVLDPSDFYSNYNQNFKGKATLTVDTSSSTAYMQLSSLTSEDSAVYYCARGLLSGDYAMDYWGQGTSVTVSS VL: DVLMTQIPLSLPVSLGDQASISCRSSQSIVHSNGNTYLEWYLQKPGQSPKSLIYKVSNRFSGVPDRFSGSGSGTDFTLKISRVEAEDLGVYYCFQGSYVPWTFGGGTKLEIKR | ~0.1 nM

Now turn to the next binder.
Field IC50 (read off the curve) (entry 18H02 (antibody, mouse IgG1, kappa, V domains shown, Murine IgG1/kappa, from hybridoma; also called anti-hErbB3 monoclonal antibody 18H02) VH: QIQLVQSGPELKKPGEAVKISCKSSGYTFTTYGMSWVKQAPGRALKWMGWINTYSGVPTYADDFKGRFAFSLESSASTAYLQINNLKNEDTATYFCARGRDGYQVAWFAYWGQGTLVTVSA VL: ETTVTQSPASLSMAIGDKVTIRCITSTDIDDDMNWFQQKPGEPPKLLISEGNTLRPGVPSRFSGSGYGTDFIFTIENMLSEDVADYYCLQSDNLPYTFGGGTKLEIKR ) reads ~0.3 nM
